Target: binary complex of TF/FVIIa (Homo sapiens, UniProt P00742)
Sequence (P00742 41-179 limits assumed): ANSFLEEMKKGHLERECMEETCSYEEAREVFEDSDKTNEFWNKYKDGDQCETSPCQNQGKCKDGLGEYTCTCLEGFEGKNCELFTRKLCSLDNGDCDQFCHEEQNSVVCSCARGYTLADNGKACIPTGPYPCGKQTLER
Sequence (P00742 235-488 limits assumed): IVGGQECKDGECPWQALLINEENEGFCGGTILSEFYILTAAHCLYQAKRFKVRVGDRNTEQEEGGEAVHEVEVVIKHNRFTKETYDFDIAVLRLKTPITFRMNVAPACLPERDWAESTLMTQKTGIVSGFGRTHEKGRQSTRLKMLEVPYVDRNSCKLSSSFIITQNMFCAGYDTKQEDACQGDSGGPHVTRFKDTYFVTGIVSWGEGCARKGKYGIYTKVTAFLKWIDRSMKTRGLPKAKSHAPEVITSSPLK
Test: lipidated TF assay (chromogenic assay measuring the FXa generated by TF/FVIIa)
Assay type: biochemical
Details: FVIIa 5 pM, FX 20 nM, TF 5 pM, CaCl2 5 mM; 15 min preincubation at ambient temperature; FXa substrate S2765; read-out: IC50: concentration of peptide inhibiting the rate of FX activation by 50%
Some substances, each annotated with its measured IC50.

- SUBSTANCE: "H-IITYRKGSST-OH [mu#158-167]"
  IC50, µM: 21
- SUBSTANCE: "H--Thr--Leu--Tyr--Tyr--Trp--Arg--Ala--Ser--Ser--Thr--OH (H-TLYYWRASST-OH) [rb#152-161, 10-mer of rabbit TF residues 152-161]"
  IC50, µM: 14
- SUBSTANCE: "H-TLYYWKSSSS-OH [hu#154-163]"
  IC50, µM: 100
